# Test system: Cryptococcus neoformans
# Experiment Summary: Antifungal activity against Cryptococcus neoformans PMC 2103 after 72 hrs by CLSI broth microdilution method
# Format: functional
# Measurement Parameters: PMC 2103, 72 h
We begin with a simple list: items and their reported MIC50.
Measured Attribute: MIC50 (µg/mL)

[[record]]
compound = "O=C(OC(Cn1ccnc1)c1ccc(F)cc1)N1CCN(c2ccc([N+](=O)[O-])cc2)CC1 (stereo unspecified)"
observed_measurement = 8

[[record]]
compound = "O=C(Nc1ccc(N2CCN(c3ccc(Cl)cc3)CC2)cc1)OC(Cn1ccnc1)c1ccc(F)cc1 (stereo unspecified)"
observed_measurement = 0.25

[[record]]
compound = "O=C(OC(Cn1ccnc1)c1ccc(F)cc1)N1CCN(c2ccc(Cl)cc2)CC1 (stereo unspecified)"
observed_measurement = 2

[[record]]
compound = "O=C(OC(Cn1ccnc1)c1ccc(F)cc1)N1CCN(c2ncccc2[N+](=O)[O-])CC1 (stereo unspecified)"
observed_measurement = 2

[[record]]
compound = "OC(Cn1cncn1)(Cn1cncn1)c1ccc(F)cc1F"
observed_measurement = 2

[[record]]
compound = "O=C(OC(Cn1ccnc1)c1ccc(Cl)cc1)N1CCN(c2ccc([N+](=O)[O-])cc2)CC1 (stereo unspecified)"
observed_measurement = 8

